Reported values of Emax for individual entries
Biological target: GST tagged LXRalpha LBD (ligand binding domain) (Homo sapiens, UniProt Q13133)
Construct: purchased Invitrogen pv4655
Assay: LanthaScreen TR-FRET Liver X Receptor Coactivator Assay, LXR alpha-LBD (co-activator recruitment; IP and % Emax relative to T0901317)
Assay type: biochemical
Conditions: efficacy at max dose in relation to reference T0901317, LXR alpha-LBD; read-out: LXR alpha actiivty at max dose (%)
parameter_measured: Emax (%)

- molecule: "COc1cccc([C@](O)(C(=O)N(C)C[C@@H]2C[C@@H]2CC2CCN(c3ccc(C(=O)N(C)C)c(Cl)n3)CC2)C(F)(F)F)c1 [Example 18-3]"
  meas_value: 0
- molecule: "CN(C)C(=O)c1ccc(N2CCC(CCCN(C)C(=O)[C@@](O)(c3cccc(OC(F)(F)F)c3)C(F)(F)F)CC2)nc1Cl [Example 1-39]"
  meas_value: 34
- molecule: "COc1cccc([C@@](O)(C(=O)N(C)CCCC2CCN(c3ccc(C(=O)N(C)CCO)c(Cl)n3)CC2)C(F)(F)F)c1 [Example 2-5]"
  meas_value: 23
- molecule: "COc1cccc([C@@](O)(C(=O)N(C)CCCC2CCN(c3ccc(C(=O)N(C)C)c(C4CC4)n3)CC2)C(F)(F)F)c1 [Example 2-17]"
  meas_value: 0
- molecule: "CCOc1cccc([C@@](O)(C(=O)N(C)CCCC2CCN(c3ccc(C(=O)N(C)C)c(Cl)n3)CC2)C(F)(F)F)c1 [Example 1-36]"
  meas_value: 0
- molecule: "COc1cccc([C@@](O)(C(=O)N(C)CC[C@H]2CC23CCN(c2ccc(C(=O)N(C)C4CC4)c(Cl)n2)CC3)C(F)(F)F)c1 [Example 7-18]"
  meas_value: 16
- molecule: "COc1cccc([C@@](O)(C(=O)N(C)CCCC2CCN(c3ccc(C(=O)N4CCC4)c(Cl)n3)CC2)C(F)(F)F)c1 [Example 2-15]"
  meas_value: 0
- molecule: "CN(C)C(=O)c1ccc(N2CCC(CCCN(C)C(=O)[C@@]3(c4ccccc4F)CCCO3)CC2)nc1Cl [Example 1-5]"
  meas_value: 6
- molecule: "CN(C)C(=O)c1ccc(N2CCC(C)(CCCN(C)C(=O)[C@](O)(c3ccccc3)C(F)(F)F)CC2)cc1Cl [Example 9-7]"
  meas_value: 19
- molecule: "CNC(=O)c1ccc(N2CCC3(CC2)CC3CCN(C)C(=O)[C@](O)(c2cccc(OC)c2)C(F)(F)F)nc1Cl (stereo in doubt) [Example 7-20]"
  meas_value: 40
- molecule: "COc1cccc([C@@](O)(C(=O)N(C)CC[C@H]2CC23CCN(c2ccc(C(=O)NC4CC4)c(Cl)n2)CC3)C(F)(F)F)c1 [Example 7-16]"
  meas_value: 40
- molecule: "CN(C)C(=O)c1ccc(N2CCC(CCCN(C)C(=O)C3(c4ccccc4)CCOCC3)CC2)nc1Cl [Example 1-17]"
  meas_value: 7
- molecule: "COc1cccc([C@@](O)(C(=O)NC[C@H](C)CC2CCN(c3ccc(C(=O)N(C)C)c(Cl)n3)CC2)C(F)(F)F)c1 [Example 3-5]"
  meas_value: 22

---

Molecular target: GST tagged LXRalpha LBD (ligand binding domain) (Homo sapiens)
Construct: purchased Invitrogen pv4655
Sequence (Q13133 209-447 limits assumed): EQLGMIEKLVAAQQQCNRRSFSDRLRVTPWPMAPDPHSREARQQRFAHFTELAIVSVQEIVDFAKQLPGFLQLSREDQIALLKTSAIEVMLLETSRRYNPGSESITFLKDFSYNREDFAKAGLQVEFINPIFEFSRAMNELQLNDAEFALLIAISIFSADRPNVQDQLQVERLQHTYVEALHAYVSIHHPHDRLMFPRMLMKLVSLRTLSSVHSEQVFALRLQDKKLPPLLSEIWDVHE
Test: LanthaScreen TR-FRET Liver X Receptor Coactivator Assay, LXR alpha-LBD (co-activator recruitment; IP and % Emax relative to T0901317)
Assay type: biochemical
Conditions: efficacy at max dose in relation to reference T0901317, LXR alpha-LBD; read-out: LXR alpha actiivty at max dose (%)
Reported values of Emax for individual entries
parameter_measured: Emax

- sample_smiles: "CN(C)C(=O)c1ccc(N2CCC(C)(CCCN(C)C(=O)[C@](O)(c3ccccc3)C(F)(F)F)CC2)nc1Cl"
  assayed_system: "GST tagged LXRalpha LBD (ligand binding domain) (Homo sapiens)"
  meas_value: "21%"
- sample_smiles: "CNC(=O)c1ccc(N2CCC(CCCN(C)C(=O)[C@](O)(c3cccc(OC)c3)C(F)(F)F)CC2)nc1Cl"
  assayed_system: "GST tagged LXRalpha LBD (ligand binding domain) (Homo sapiens)"
  meas_value: "13%"
- sample_smiles: "CN(C)C(=O)c1ccc(N2CCC([C@H]3C[C@H]3CN(C)C(=O)[C@](O)(c3cc(Cl)cc(Cl)c3)C(F)(F)F)CC2)nc1Cl"
  assayed_system: "GST tagged LXRalpha LBD (ligand binding domain) (Homo sapiens)"
  meas_value: "4%"

---

Biological target: GST tagged LXRbeta LBD (ligand binding domain) (Homo sapiens)
Sequence (P55055 222-460 limits assumed): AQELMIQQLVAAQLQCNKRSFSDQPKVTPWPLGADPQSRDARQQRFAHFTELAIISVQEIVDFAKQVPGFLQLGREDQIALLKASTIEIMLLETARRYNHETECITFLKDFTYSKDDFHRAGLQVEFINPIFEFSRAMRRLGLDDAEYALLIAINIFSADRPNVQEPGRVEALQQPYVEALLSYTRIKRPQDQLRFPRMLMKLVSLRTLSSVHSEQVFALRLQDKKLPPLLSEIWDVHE
Assay: LanthaScreen TR-FRET Liver X Receptor Coactivator Assay, LXR beta-LBD (co-activator recruitment; IP and % Emax relative to T0901317)
Conditions: Inflection Point of co-activator recruitment, LXR beta-LBD, TR-FRET
pEC50: −log10 of the molar value.
Reported values of pEC50 for individual entries
parameter_measured: pEC50

- molecule: "CNC(=O)c1ccc(N2CCC3(CC2)C[C@H]3CCN(C)C(=O)[C@](O)(c2ccccc2)C(F)(F)F)cc1Cl [Example 7-24]"
  assayed_system: "GST tagged LXRbeta LBD (ligand binding domain) (Homo sapiens)"
  meas_value: 5.85
- molecule: "CN(C)C(=O)c1ccc(N2CCC([C@H]3C[C@H](N(C)C(=O)[C@](O)(c4cccc(C5CC5)c4)C(F)(F)F)C3)CC2)nc1Cl [Example 17-1]"
  assayed_system: "GST tagged LXRbeta LBD (ligand binding domain) (Homo sapiens)"
  meas_value: 7.74
- molecule: "CNC(=O)c1ccc(N2CCC3(CC2)C[C@H]3CCN(C)C(=O)[C@](O)(c2ccccc2)C(F)(F)F)cc1Cl (single isomer, unassigned) [Example 7-7]"
  assayed_system: "GST tagged LXRbeta LBD (ligand binding domain) (Homo sapiens)"
  meas_value: 7.66
- molecule: "CN(C)C(=O)c1ccc(N2CCC(CCCN(C)C(=O)C(O)(c3ccccc3)C(F)(F)F)CC2)cc1Cl (single isomer, unassigned) [Example 4-7]"
  assayed_system: "GST tagged LXRbeta LBD (ligand binding domain) (Homo sapiens)"
  meas_value: 6.43
- molecule: "COc1cccc([C@@](O)(C(=O)N(C)CC(C)CC2CCN(c3ccc(C(=O)N(C)C)c(Cl)n3)CC2)C(F)(F)F)c1 (single isomer, unassigned) [Example 3-2]"
  assayed_system: "GST tagged LXRbeta LBD (ligand binding domain) (Homo sapiens)"
  meas_value: 7.28
- molecule: "CC(C)NC(=O)c1ccc(N2CCC3(CC2)C[C@@H]3CCN(C)C(=O)[C@](O)(c2ccccc2)C(F)(F)F)cc1Cl [Example 7-12]"
  assayed_system: "GST tagged LXRbeta LBD (ligand binding domain) (Homo sapiens)"
  meas_value: 7.10
- molecule: "COc1cccc([C@@](O)(C(=O)N(C)CC[C@H]2CC23CCN(c2ccc(C(=O)NC(C)C)c(Cl)c2)CC3)C(F)(F)F)c1 [Example 7-10]"
  assayed_system: "GST tagged LXRbeta LBD (ligand binding domain) (Homo sapiens)"
  meas_value: 7.00
- molecule: "COc1cccc([C@@](O)(C(=O)N(C)CC[C@@H]2CC23CCN(c2ccc(C(=O)NC4CC4)c(Cl)c2)CC3)C(F)(F)F)c1 [Example 7-27]"
  assayed_system: "GST tagged LXRbeta LBD (ligand binding domain) (Homo sapiens)"
  meas_value: 5.73
- molecule: "COc1cccc([C@@](O)(C(=O)Nc2cccc(C3CCN(c4ccc(C(=O)N(C)C)c(Cl)n4)CC3)c2)C(F)(F)F)c1 [Example 10-4]"
  assayed_system: "GST tagged LXRbeta LBD (ligand binding domain) (Homo sapiens)"
  meas_value: 6.19
- molecule: "CN(C)C(=O)c1ccc(N2CCC([C@H]3C[C@@H](N(C)C(=O)[C@](O)(c4cccc(OC5CC5)c4)C(F)(F)F)C3)CC2)nc1Cl [Example 17-5]"
  assayed_system: "GST tagged LXRbeta LBD (ligand binding domain) (Homo sapiens)"
  meas_value: 6.83
- molecule: "CNC(=O)c1ccc(N2CCC3(CC2)CC(CN(C)C(=O)[C@](O)(c2cccc(OC)c2)C(F)(F)F)C3)nc1Cl [Example 14-2]"
  assayed_system: "GST tagged LXRbeta LBD (ligand binding domain) (Homo sapiens)"
  meas_value: 6.33
- molecule: "CNC(=O)c1ccc(N2CCC(c3ccc(NC(=O)[C@](O)(c4cccc(OC)c4)C(F)(F)F)cc3)CC2)cc1Cl [Example 10-2]"
  assayed_system: "GST tagged LXRbeta LBD (ligand binding domain) (Homo sapiens)"
  meas_value: 5.43
- molecule: "CN(C)C(=O)c1ccc(N2CCC(CCCN(C)C(=O)[C@](O)(c3cccc(O)c3)C(F)(F)F)CC2)nc1Cl [Example 1-58]"
  assayed_system: "GST tagged LXRbeta LBD (ligand binding domain) (Homo sapiens)"
  meas_value: 7.43
- molecule: "CN(C)C(=O)c1ccc(N2CCC(F)(CCCN(C)C(=O)[C@](O)(c3ccccc3)C(F)(F)F)CC2)cc1Cl [Example 12-1]"
  assayed_system: "GST tagged LXRbeta LBD (ligand binding domain) (Homo sapiens)"
  meas_value: 6.58
- molecule: "CC(C)[C@@]1(C(=O)N(C)CCCC2CCN(c3ccc(C(=O)N(C)C)c(Cl)n3)CC2)CCCO1 [Example 1-18]"
  assayed_system: "GST tagged LXRbeta LBD (ligand binding domain) (Homo sapiens)"
  meas_value: 6.25
- molecule: "CNC(=O)c1ccc(N2CCC3(CC2)C[C@H]3CCN(C)C(=O)[C@](O)(c2cccc(OC)c2)C(F)(F)F)cc1Cl [Example 7-21]"
  assayed_system: "GST tagged LXRbeta LBD (ligand binding domain) (Homo sapiens)"
  meas_value: 5.81
- molecule: "COc1ccccc1[C@]1(C(=O)N(C)CCCC2CCN(c3ccc(C(=O)N(C)C)c(Cl)n3)CC2)CCCO1 [Example 1-59]"
  assayed_system: "GST tagged LXRbeta LBD (ligand binding domain) (Homo sapiens)"
  meas_value: 6.93
- molecule: "COc1cccc([C@](O)(C(=O)N(C)CCCC2CCN(c3ccc(C(=O)N(C)C)c(Cl)n3)CC2)C(F)F)c1 [Example 1-13]"
  assayed_system: "GST tagged LXRbeta LBD (ligand binding domain) (Homo sapiens)"
  meas_value: 6.83
- molecule: "CN(C)C(=O)c1ccc(N2CCC(CCCN(C)C(=O)[C@@]3(c4cccc(Cl)c4)CCCO3)CC2)nc1Cl [Example 1-63]"
  assayed_system: "GST tagged LXRbeta LBD (ligand binding domain) (Homo sapiens)"
  meas_value: 6.43
- molecule: "COc1cccc([C@@](O)(C(=O)N(C)CCCC2CCN(c3ccc(C(=O)N4CCCC4)c(Cl)n3)CC2)C(F)(F)F)c1 [Example 2-6]"
  assayed_system: "GST tagged LXRbeta LBD (ligand binding domain) (Homo sapiens)"
  meas_value: 6.90
- molecule: "CN(C)C(=O)c1ccc(N2CCC(CCCN(C)C(=O)[C@](O)(c3cccc(OC(F)(F)F)c3)C(F)(F)F)CC2)nc1Cl [Example 1-40]"
  assayed_system: "GST tagged LXRbeta LBD (ligand binding domain) (Homo sapiens)"
  meas_value: 7.28
- molecule: "CCOc1cccc([C@@](O)(C(=O)N(C)CCCC2CCN(c3ccc(C(=O)N(C)C)c(Cl)c3)CC2)C(F)(F)F)c1 [Example 4-2]"
  assayed_system: "GST tagged LXRbeta LBD (ligand binding domain) (Homo sapiens)"
  meas_value: 6.66
- molecule: "CN(C)C(=O)c1ccc(N2CCC(CCCNC(=O)[C@](O)(c3cccc(O)c3)C(F)(F)F)CC2)nc1Cl [Example 5-22]"
  assayed_system: "GST tagged LXRbeta LBD (ligand binding domain) (Homo sapiens)"
  meas_value: 5.92
- molecule: "COc1cccc([C@@](O)(C(=O)N(C)CCCC2CCN(c3ncc(C(=O)N(C)C)cc3Cl)CC2)C(F)(F)F)c1 [Example 2-22]"
  assayed_system: "GST tagged LXRbeta LBD (ligand binding domain) (Homo sapiens)"
  meas_value: 5.95
- molecule: "COc1cccc([C@@](O)(C(=O)N(C)CCCC2CCN(c3ccc(C(=O)N4CC(NC(=O)OC(C)(C)C)C4)c(Cl)n3)CC2)C(F)(F)F)c1 [Example 2-9]"
  assayed_system: "GST tagged LXRbeta LBD (ligand binding domain) (Homo sapiens)"
  meas_value: 8.05
- molecule: "CN(C)C(=O)c1ccc(N2CCC([C@@H]3C[C@H]3CN(C)C(=O)[C@@](O)(c3ccccc3)C(F)(F)F)CC2)cc1Cl [Example 15-20]"
  assayed_system: "GST tagged LXRbeta LBD (ligand binding domain) (Homo sapiens)"
  meas_value: 6.39

Where these numbers come from: patent US10961215B2
